# System: MDA-MB-231 breast
# Assay info: NCI tumour cell line growth inhibition, 48 h; in the data active = GI50 below about 0.43 µM; inactive = the rest
In this exercise, the only acceptable responses are active, inactive

# count of solved cases: 4
1. O=C(COc1cccc(/C=C2\Oc3ccc4ccccc4c3C2=O)c1)c1ccc([N+](=O)[O-])cc1 = inactive
2. Cc1nn(-c2ccccc2)c2nc(C)n(-c3ccc(Br)cc3)c(=O)c12 = inactive
3. COc1ccc2nc3ccccc3c(NCc3ccccc3)c2c1 = inactive
4. Nc1no[n+]([O-])c1-c1nnc2c(n1)-c1ccccc1C2=O = inactive

Assay outcome for CCC(=C(c1ccc(OCCN2CCCC2)cc1)c1ccc(OCCN2CCCC2)cc1)c1ccc(Cl)cc1 : what was it? inactive

GET /call?item= C[C@@H](Oc1cc(-c2cnn(C3CCNCC3)c2)cnc1N)c1c(Cl)cc(F)cc1Cl returns the recorded outcome of this test. inactive

Given C=C1C(O)C2CC(C)(C)C(=O)C2=C(CC(C)C)C12CC2 (stereo not given) , state the outcome it received in this test. inactive

Hey, what did the test say about Cc1cc(OCc2nn(CN3CCN(C)CC3)c(=S)n2/N=C/c2ccc(F)cc2)ccc1Cl ? inactive

Kindly provide the recorded test outcome for the following compound: COc1ccc(NC(=O)c2cccc(C3CCc4c(cc(OC)c(OC)c4OC)O3)c2)cc1 (stereo not given) inactive

Tell me the assay call for CCC(C(=O)[C@@H](C)[C@@H](O)[C@H](C)[C@@H]1O[C@@H]([C@@H](CC)C(=O)ONC(=O)c2ccccc2)CC[C@@H]1C)[C@H]1O[C@]2(C=CC(=O)[C@]3(CC[C@@](C)([C@H]4CC[C@](O)(CC)[C@H](C)O4)O3)O2)[C@H](C)C[C@@H]1C (stereo not given in full) please. active

====

# System: HS 578T breast
# Assay info: NCI tumour cell line growth inhibition, 48 h
Metric name: TGI

Reported TGI ( Nc1ncc2c(n1)-c1ccccc1OC2N1CCOCC1 (configuration not stated) ) = > 100 µM

Per the record, C/C=C(\C)C(=O)O[C@@H]1C=CC(=O)O[C@H]1CNC(=O)[C@H](C)O has TGI of 53.8 µM

Just so you know, measured TGI for CC1(C)CC[C@]2(CO)CC[C@]3(C)C(=CC[C@@H]4[C@@]5(C)CCNCC(C)(C)[C@@H]5CC[C@]43C)[C@@H]2C1 came out at 22.1 µM

Form field TGI, entry C=CCN1C(=O)CS/C1=N\NC(=O)CSc1nc2ccccc2c(=O)n1CC : > 100 µM

Per the records, this compound ( O=C(CC1Sc2ccccc2NC1=O)NNc1ccc(F)cc1 (configuration not stated) ) has TGI equal to > 100 µM

====

# System: SF-295 CNS
# Assay info: NCI tumour cell line growth inhibition, 48 h
Metric name: TGI

Some compounds with known TGI results, for comparison:
1. COc1ccc(C2=NN(C(=O)c3ccc(Cl)cc3)C(O)(c3cc(F)c(Cl)cc3Cl)C2)cc1 (stereo unspecified) = > 100 µM
2. Cc1ccc2c(c1)CC1(C2)Cc2ccc(C)cc2C1=O (stereo unspecified) = > 100 µM
3. C[C@@H](Oc1cc(-c2cnn(C3CCNCC3)c2)cnc1N)c1c(Cl)cc(F)cc1Cl = 7.23 µM

Param item: N#Cc1c(N)c2c(c(-c3ccccc3)c1-c1ccccc1)C(=O)N(O)C2=O ; param system: SF-295 CNS; output TGI: > 100 µM

# TGI measured on SF-295 CNS for item COC1OC(Cn2cc([N+](=O)[O-])nc2C)C(O)C(O)C1O (stereo unspecified) = > 100 µM

The recorded TGI with SF-295 CNS for CCCCNCCCCCNc1cc(OC)cc2cccnc12 was 84.9 µM
